Cited source for all entries: ChEMBL document CHEMBL1201862

Assay: HEp-2 cell cytotoxicity, dose response, cytotoxicity control for RSV inhibitor project, HTS (AID 2410)
Type: functional
Conditions: human respiratory syncytial virus
Active and inactive are the calls of the source. The rule behind the calls is not given here.

- Compound string: "COn1c(-c2ccc(Cl)cc2)nc2ccc(Cl)cc21"
  CC50: "35.3 µM (active)"
- Compound string: "O=C1[C@H]2[C@@H](c3ccc(F)cc3)N3C(=O)N(c4ccc(C(F)(F)F)cc4)C(=O)[C@@]3(Cc3ccccc3)[C@H]2C(=O)N1C1CCCCC1"
  CC50: "> 50 µM (active)"
- Compound string: "CNc1nc(-c2ccc3c(c2)CCN3C(=O)c2ccccc2C)cs1"
  CC50: "14.9 µM (active)"
- Compound string: "COc1ccc2nc(NC(=O)c3ccccc3[N+](=O)[O-])sc2c1"
  CC50: "45.6 µM (active)"
- Compound string: "Cc1ccc(-c2csc(NCCc3nc4cc(Cl)c(Cl)cc4n3CCCO)n2)cc1"
  CC50: "28.9 µM (active)"
